test system: LoVo-Dox; test: Inhibition of cell growth by colorimetric SRB assay, LOVO-DOX; type: cell-based; details: Homo sapiens; LOVO-DOX; 48 hours exposure; total growth inhibition; read-out: TGI
Entries annotated with measured IC (total growth inhibition)
Express it in µM; write the number only.

- compound: "C/C=C\\[C@H](C)[C@H]1OC1(C)[C@@H](O[Si](C)(C)C(C)(C)C)[C@@H](CO)C(=O)[C@H](CO)[C@H](O)CC(=O)CC (some centres unmarked) [20b + 20d]"
  assay.endpoint: "IC (total growth inhibition)"
  observed.value: 20.5
- compound: "C/C=C\\[C@H](C)[C@H]1OC1(C)[C@@H](O[Si](C)(C)C(C)(C)C)[C@@H](CO)C(=O)[C@H](CO)[C@@H](O)CC(=O)CC (some centres unmarked) [20a + 20c]"
  assay.endpoint: "IC (total growth inhibition)"
  observed.value: 20.5
- compound: "C/C=C\\[C@H](C)[C@H]1OC1(C)[C@@H](O[Si](C)(C)C(C)(C)C)[C@@H](COC(C)=O)C(=O)[C@H](CO)[C@H](O)CC(=O)CC (some centres unmarked) [Compound 43]"
  assay.endpoint: "IC (total growth inhibition)"
  observed.value: 7.21

What value of measured IC (total growth inhibition) is listed for C/C=C\[C@H](C)[C@H]1OC1(C)[C@@H](O[Si](C)(C)C(C)(C)C)[C@@H](CO[Si](C)(C)C(C)(C)C)C(=O)[C@@H](CO[Si](C)(C)C(C)(C)C)[C@@H](CC(=O)CC)O[Si](C)(C)C(C)(C)C (some centres unmarked) [Compound 30b] ?
12.1

What value of measured IC (total growth inhibition) is listed for C/C=C\[C@H](C)[C@H]1OC1(C)[C@@H](O[Si](C)(C)C(C)(C)C)[C@@H](COC(C)=O)C(=O)[C@H](CO)[C@@H](O)CC(=O)CC (some centres unmarked) [Compound 46] ?
18.9

What value of measured IC (total growth inhibition) is listed for C/C=C\[C@H](C)[C@H]1OC1(C)[C@@H](O[Si](C)(C)C(C)(C)C)[C@@H](COC(C)=O)C(=O)[C@H](COC(C)=O)[C@@H](CC(=O)CC)OC(C)=O (some centres unmarked) [Compound 45] ?
16.3

What value of measured IC (total growth inhibition) is listed for C/C=C\[C@H](C)[C@H]1OC1(C)[C@@H](O)[C@@H](CO)C(=O)[C@@H](CO)[C@H](O)CC(=O)CC (some centres unmarked) [3d + 4d] ?
26.8

What value of measured IC (total growth inhibition) is listed for C/C=C\[C@H](C)[C@H]1OC1(C)[C@@H](O[Si](C)(C)C(C)(C)C)[C@@H](CO)C(=O)[C@@H](CO)[C@H](O)CC(=O)CC (some centres unmarked) [31b + 31d] ?
20.5

What value of measured IC (total growth inhibition) is listed for C/C=C\[C@H](C)[C@H]1O[C@@]1(C)[C@@H](O)[C@@H](CO)C(=O)[C@H](CO)[C@@H](O)CC(=O)CC [3a + 4a] ?
1.36

What value of measured IC (total growth inhibition) is listed for C/C=C\[C@H](C)[C@H]1OC1(C)[C@@H](O[Si](C)(C)C(C)(C)C)[C@@H](CO[Si](C)(C)C(C)(C)C)C(=O)[C@@H](CO[Si](C)(C)C(C)(C)C)[C@H](CC(=O)CC)O[Si](C)(C)C(C)(C)C (some centres unmarked) [Compound 30a] ?
12.1

What value of measured IC (total growth inhibition) is listed for C/C=C\[C@H](C)[C@H]1O[C@@]1(C)[C@@H](O)[C@@H](CO)C(=O)[C@@H](CO)[C@@H](O)CC(=O)CC [3c + 4c] ?
6.18

Values compiled from patent US7521478B2.
